Below: a set of entries, each annotated with reported Percent apoptotic eosinophils (annexin V-positive) at 10 µg/mL.
Tested on: Allergic Human Purified Peripheral Blood Eosinophils
measurement.description: Percent eosinophil apoptosis (Annexin V-FITC, flow cytometry) in allergic human purified peripheral blood eosinophils
Assay type: cell-based
particulars: Homo sapiens, Eosinophil; 10 μg/mL test compound, IL-5 (50 pM), 18 hr incubation, annexin Vpos; assay SD +/-2.3%; read-out: Percent of apoptotic EO cells
Experimental: Percent Eosinophil Apoptosis in Allergic Human Purified Peripheral Blood Eosinophils Aliquots were removed after 18 hr incubation, washed twice in PBS, and resuspended in binding buffer. The eosinophil cells were stained using the Annexin V-FITC Apoptosis Detection Kit I, (Sigma Aldrich) and immediately analyzed by flow cytometry. […]
Hi! Could you send only the number? It should be in %, unit omitted.

Guide cases for Percent apoptotic eosinophils (annexin V-positive) at 10 µg/mL, answers given:
{"molecule": "CC/C=C\\C/C=C\\C/C=C\\C/C=C\\C/C=C\\CCCC(=O)N(C)[C@@H](Cc1ccccc1)C(=O)N[C@H](C(=O)N(C)[C@H](C(=O)N1C[C@@H](O)C[C@H]1C(=O)N1C(=O)C=CC1=O)C(C)C)C(C)OC(C)=O (stereo partly drawn) [Compound 23a]", "tested.target": "Allergic Human Purified Peripheral Blood Eosinophils", "unit.symbol": "%", "result.value": 65.6}
{"molecule": "CCCCCCCC(=O)N(C)[C@H](C(=O)N[C@H](C(=O)N(C)[C@@H](Cc1c[nH]c2ccccc12)C(=O)N1C[C@@H](O)C[C@H]1C(=O)N1C(=O)C=CC1=O)C(C)OC(C)=O)C(C)CC (stereo partly drawn) [Compound 20a]", "tested.target": "Allergic Human Purified Peripheral Blood Eosinophils", "unit.symbol": "%", "result.value": 39.4}
{"molecule": "CCCC[C@@H](C)C[C@@H](C)C(=O)N(C)[C@@H](CC(C)C)C(=O)N[C@H](C(=O)N(C)[C@H](C(=O)N1CCC[C@H]1C(=O)N1C(=O)C=C[C@@H]1C)C(C)C)C(C)OC(C)=O (stereo partly drawn) [Compound 3a]", "tested.target": "Allergic Human Purified Peripheral Blood Eosinophils", "unit.symbol": "%", "result.value": 43.7}
{"molecule": "CC(C)C[C@@H](C(=O)N[C@H](C(=O)N(C)[C@H](C(=O)N1C[C@@H](O)C[C@H]1C(=O)N1C(=O)C=C[C@@H]1C)C(C)C)C(C)O)N(C)C(=O)C1CCCCC1 (stereo partly drawn) [Compound 13a]", "tested.target": "Allergic Human Purified Peripheral Blood Eosinophils", "unit.symbol": "%", "result.value": 44}
{"molecule": "CCCCCCCC(=O)N(C)[C@@H](Cc1ccccc1)C(=O)N[C@H](C(=O)N(C)[C@H](C(=O)N1C[C@@H](O)C[C@H]1C(=O)N1C(=O)C=CC1=O)C(C)C)C(C)OC(C)=O (stereo partly drawn) [Compound 18a]", "tested.target": "Allergic Human Purified Peripheral Blood Eosinophils", "unit.symbol": "%", "result.value": 55.5}
{"molecule": "CC/C=C\\C/C=C\\C/C=C\\C/C=C\\C/C=C\\CCCC(=O)N(C)[C@@H](CC(C)C)C(=O)N[C@H](C(=O)N(C)[C@H](C(=O)N1C[C@@H](O)C[C@H]1C(=O)N1C(=O)C=C[C@@H]1C)C(C)C)C(C)O (stereo partly drawn) [Compound 14a]", "tested.target": "Allergic Human Purified Peripheral Blood Eosinophils", "unit.symbol": "%", "result.value": 67.1}

I have this molecule here, CC/C=C\C/C=C\C/C=C\C/C=C\C/C=C\CCCCCC(=O)N(C)[C@@H](Cc1ccccc1)C(=O)N[C@H](C(=O)N(C)[C@H](C(=O)N1CCC[C@H]1C(=O)N1C(=O)C=CC1=O)C(C)C)C(C)O (stereo partly drawn) [Compound 26a] , and I need its recorded Percent apoptotic eosinophils (annexin V-positive) at 10 µg/mL. 67.3

I have this molecule here, CC/C=C\C/C=C\C/C=C\C/C=C\C/C=C\CCCC(=O)N(C)[C@@H](CC(C)C)C(=O)N[C@H](C(=O)N(C)[C@H](C(=O)N1C[C@@H](O)C[C@H]1C(=O)N1C(=O)C=CC1=O)C(C)C)C(C)OC(C)=O (stereo partly drawn) [Compound 21a] , and I need its recorded Percent apoptotic eosinophils (annexin V-positive) at 10 µg/mL. 58

I have this molecule here, CCCCCCCC(=O)N(C)[C@@H](CC(C)C)C(=O)N[C@H](C(=O)N(C)[C@H](C(=O)N1C[C@@H](O)C[C@H]1C(=O)N1C(=O)C=C[C@@H]1C)C(C)C)C(C)OC(C)=O (stereo partly drawn) [Compound 5a] , and I need its recorded Percent apoptotic eosinophils (annexin V-positive) at 10 µg/mL. 53.1
